# Measurement description: chemical genetic growth profiling, strain panel (AID 1159580);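 also: tested at 20 µM; growth read once vehicle control cultures reached saturation at 30 °C; 1 = growth at the plate median or of vehicle wells; lower values mean less growth of the strain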
# Run parameters: S. cerevisiae deletion strains, growth OD, locus YER015W, strain faa2
About 2,000 (36%) of roughly 5,500 compounds were called active. Inconclusive results (about 18%) are left out. Rule as the data show it: active = normalized growth mostly below about 0.91 (no sharp cut-off); inconclusive = no clear call, values can overlap the other calls; inactive = mostly above about 0.92. This is one part of the list.
Return exactly one item of yes for active, no for inactive

Please review the entries below; each comes with its answer.
N[C@@H](CCC(=O)N[C@@H](CCSC(CC(=O)O)C(=O)O)C(=O)NCC(=O)O)C(=O)O (some centres undefined)    no
CCOC(=O)C(C)(N)Cc1ccc(O)c(O)c1 (centres undefined)    no
COc1ccc(/C=C/C(=O)c2cc(O)ccc2O)cc1    yes

Incoming: I would be grateful if you could indicate the recorded call for CC[C@@]1(C2O[C@@H](C3O[C@@](O)(CC)[C@H](C)C[C@@H]3C)C[C@@H]2C)CC[C@H]([C@]2(C)CCC3(C[C@H](O)[C@@H](C)[C@@H]([C@H](C)[C@@H](OC)[C@H](C)C(=O)O)O3)O2)O1 (some centres undefined) .
Outgoing: no

----------
# Measurement description: chemical genetic growth profiling, strain panel (AID 1159580);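 also: tested at 20 µM; growth read once vehicle control cultures reached saturation at 30 °C; 1 = growth at the plate median or of vehicle wells; lower values mean less growth of the strain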
# Run parameters: S. cerevisiae deletion strains, growth OD, locus YGL086W, strain mad1, stronger effect = lower value
Screen size: about 5,500 compounds; about 2,000 (36%) were called active. Another 18% or so got no clear call; they are omitted. This is one part of the list.
Entries and their normalized growth values follow.
Could you respond with only the numeric value?

Here is how some compounds turned out for normalized growth.
CCC(CCC(C)C1CCC2C3CC=C4C[C@@H](OC(C)=O)CC[C@]4(C)C3CC[C@]12C)C(C)C (stereo partly specified)    0.992
C=CCN1CC[C@]23c4c5ccc(O)c4OC2C(=O)CC[C@@]3(O)[C@H]1C5 (stereo partly specified)    0.993
CC(=O)N[C@@H]1[C@@H](C(O)[C@H](O)CO)O[C@](O)(C(=O)O)C[C@@H]1O (stereo partly specified)    1
C[C@@H]1CC2C3CCC4=CC(=O)C=C[C@]4(C)[C@@]3(F)[C@@H](O)C[C@]2(C)[C@@]1(O)C(=O)COP(=O)(O)O (stereo partly specified)    1.02
CC(=O)O[C@H]1CC[C@@]2(C)C(=CCC3C2CC[C@@]2(C)C3CC[C@@H]2C(C)CCCC(C)C)C1 (stereo partly specified)    1.01
CCCSP(=O)(OCC)SCCC    0.994
COc1cc(C)c2c(c1C=O)Oc1c(c(C)c(O)c3c1C(O)OC3=O)OC2=O (stereo unspecified)    1.01
CC(=O)O[C@H]1C[C@@H](OC(C)=O)C(C)(C)C2C[C@@H](OC(C)=O)[C@]3(C)C(CC[C@@]4(C)[C@H](c5ccoc5)C(=O)[C@H]5O[C@]543)[C@]21C (stereo partly specified)    1.01
NCCCCN=C(N)N    0.963
CCOc1ccc2c(c1)C(C)=CC(C)(C)N2    1

Incoming: Returns the measured normalized growth for the input compound. Input: O=C(O)CCCCC1SCC2NC(=O)NC21 (stereo unspecified)
Outgoing: 0.993

Incoming: CC(COc1ccccc1)N(CCCl)Cc1ccccc1 (stereo unspecified) ?
Outgoing: 0.986

Incoming: Item: CN=C1CN(O)C(c2ccccc2)=c2cc(Cl)ccc2=N1
Outgoing: 1

Incoming: Similarly, c1cc2c(cc1[C@H]1OC[C@H]3[C@@H]1CO[C@H]3c1ccc3c(c1)OCO3)OCO2 ?
Outgoing: 0.845

Incoming: Please answer likewise for CC12CCC3C(CC=C4CC(O)CCC43C)C1CCC2=O (stereo unspecified)
Outgoing: 0.888

Incoming: Param item: CC[C@@]1(C2O[C@@H](C3O[C@@](O)(CC)[C@H](C)C[C@@H]3C)C[C@@H]2C)CC[C@H]([C@]2(C)CCC3(C[C@H](O)[C@@H](C)[C@@H]([C@H](C)[C@@H](OC)[C@H](C)C(=O)O)O3)O2)O1 (stereo partly specified)
Outgoing: 1

Incoming: Consider next the compound CC12CCC(CC1)C(C)(C)O2 in the same way.
Outgoing: 0.986

Incoming: Follow-up item: C[C@@]12C(=O)OC(=O)[C@]1(C)C1CCC2O1
Outgoing: 0.911

Incoming: Same question for O=c1cccc2n1C[C@H]1CNCC2C1 please.
Outgoing: 0.965

Incoming: Then CCCN(CCC)C(=O)C(CCC(=O)O)NC(=O)c1ccccc1 (stereo unspecified) ?
Outgoing: 1.01

Incoming: Check OCC(S)CS (stereo unspecified) too.
Outgoing: 1.01
